MEASUREMENT TARGET: Protein Rev (Human immunodeficiency virus type 1 group M subtype B (isolate WMJ22))
ASSAY METHOD TEXT: HIV-1 Rev-RRE binding inhibitors, retest, confirmation, biochemical, FRET, acceptor and relative FRET calls (AID 837);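 also: relative FRET combines rise in Cy5 acceptor with fall in fluorescein donor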
CONDITION INFO: Fl-Rev peptide / Cy5-RRE RNA FRET, 1536-well; at 8 µM
Active and inactive are the calls of the source.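 The calls were made as follows: active = relative FRET score above 0.01, or acceptor fluorescence over 30% below the sample-well median; inactive = the rest.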
Select the matching outcome among true = active, false = inactive

Examples from the recorded data:
CN(C)CC(O)COc1ccc(-c2ccc(C#N)cc2)cc1 (stereo unspecified): true
CC(C)CN=c1cc(-c2ccccc2)oc2ccc(Cl)cc12: true
CN(CC(O)COc1ccc(OCC(O)CN(C)C2CCCCC2)cc1)C1CCCCC1 (stereo unspecified): false
COc1cccc(OC)c1-c1nn2c(-c3cc(-c4ccccc4)n[nH]3)nnc2s1: true

Recorded test call requested for "CC[n+]1c(/C=C/Nc2ccccc2)oc2ccccc21"
true

Recorded test call requested for "COc1ccc(CSc2nnc(C)n2N)cc1"
false
